remaining activity at 10 µM by entry:
ASSAY_TARGET: STAT3(D661Y)-nonphosphorylated (Homo sapiens, UniProt P40763, D661Y)
Construct: made in house; host or cells: HEK293 (transient transfection), unpurified extract, dephosphorylated by endogenous phosphatases
Sequence (P40763 whole entry D661Y): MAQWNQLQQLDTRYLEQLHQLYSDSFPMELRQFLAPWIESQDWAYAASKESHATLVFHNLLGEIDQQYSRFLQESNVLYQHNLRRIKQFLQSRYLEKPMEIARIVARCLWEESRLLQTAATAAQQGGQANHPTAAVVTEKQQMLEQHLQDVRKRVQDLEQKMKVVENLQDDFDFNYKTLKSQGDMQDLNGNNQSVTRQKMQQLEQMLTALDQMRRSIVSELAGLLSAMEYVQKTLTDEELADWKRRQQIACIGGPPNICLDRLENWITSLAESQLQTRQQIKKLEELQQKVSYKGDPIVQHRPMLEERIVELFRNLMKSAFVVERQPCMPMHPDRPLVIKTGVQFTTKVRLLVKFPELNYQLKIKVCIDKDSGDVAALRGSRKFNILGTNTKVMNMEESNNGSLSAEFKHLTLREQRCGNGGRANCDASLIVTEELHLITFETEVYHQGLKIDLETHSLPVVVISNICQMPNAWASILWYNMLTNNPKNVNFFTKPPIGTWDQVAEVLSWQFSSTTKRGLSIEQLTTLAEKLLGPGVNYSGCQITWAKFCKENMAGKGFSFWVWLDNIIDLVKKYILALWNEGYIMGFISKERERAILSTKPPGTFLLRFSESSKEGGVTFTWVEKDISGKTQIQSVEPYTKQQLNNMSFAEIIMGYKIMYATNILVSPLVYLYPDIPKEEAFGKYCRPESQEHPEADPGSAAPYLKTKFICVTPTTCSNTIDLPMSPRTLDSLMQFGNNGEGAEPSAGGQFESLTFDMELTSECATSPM
EXPERIMENT_NOTES: biochemical
Type: binding
CONDITION_SET: primary screen, 10 μM; read-out: percent of DMSO vehicle control
Number in %, nothing else.

{"columns": ["MOLECULE", "OBSERVED_RESULT"],
 "data": [
  ["O=C(CCl)Nc1cccc(CNC(=O)[C@H](Cc2ccc(OP(=O)(O)O)cc2)NC(=O)Cc2ccc(F)cc2)c1 [MN551]", 171],
  ["CC(C)(C)[C@H](NC(=O)/C=C/c1ccc(OP(=O)(O)O)cc1)C(=O)N1CCC[C@H]1C(=O)N(c1ccccc1)c1ccc(I)cc1 [STAT6-IN-3]", 4.4],
  ["C/C(=C\\C(=O)N[C@H](C(=O)N1CCC[C@H]1C(=O)N(c1ccccc1)c1ccc(I)cc1)C(C)(C)C)c1ccc(OP(=O)(O)O)cc1 [STAT6-IN-1]", 0]
]}

Now consider the entry below.
In: # query: remaining activity at 10 µM of entry O=C(COc1ccc2cc(C(=O)Nc3ccccc3)ccc2c1)NCc1ccc(OP(=O)(O)O)c(OP(=O)(O)O)c1 [Stafib-1]
Out: 157

###

ASSAY_TARGET: LNK (SH2B3) (Homo sapiens, UniProt Q9UQQ2)
Construct: the DNA-tagged SH2 domain concentrations used in this study were <0.1 nM; made in house; host or cells: HEK293 (transient transfection, unpurified extract)
Sequence (Q9UQQ2 364-462 limits assumed): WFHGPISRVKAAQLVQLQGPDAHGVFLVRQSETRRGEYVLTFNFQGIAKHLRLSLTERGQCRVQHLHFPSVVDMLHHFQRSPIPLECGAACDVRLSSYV
EXPERIMENT_NOTES: biochemical
Format: binding
CONDITION_SET: read-out: percent of DMSO vehicle control
Non-standard residues stand in square brackets, D forms with d. Residues, ends and D or L forms follow the SMILES beside them. *: point of attachment. pY = N[C@@H](Cc1ccc(OP(=O)(O)O)cc1)C(=O)O; Caffeoyl = O=C(/C=C/c1ccc(O)c(O)c1)*
MEASURED_ENDPOINT: remaining activity at 10 µM (%)
Reply with just the number (in %).

In: So what's the measured remaining activity at 10 µM for this one? CC(=O)N[C@@H](Cc1ccc(CP(=O)(O)O)cc1)C(=O)NC1(C(=O)N[C@@H](CC(N)=O)C(=O)NCCCc2c(O)ccc3ccccc23)CCCCC1 [CGP78850]
Out: 79.1

In: Looking for the measured remaining activity at 10 µM of NC(=O)CC[C@H](NC(=O)[C@@H]1CC[C@@H]2CCN(C(=O)CCCCCC#Cc3cccc4c3CN(C3CCC(=O)NC3=O)C4=O)C[C@H](NC(=O)c3cc4cc(C(F)(F)P(=O)(O)O)ccc4[nH]3)C(=O)N21)C(=O)NC(c1ccccc1)c1ccccc1 (stereo partly shown) [SD-36] , can you help?
Out: 86.6

In: What value of remaining activity at 10 µM has been recorded for this entry: CC[C@H](C)[C@H](NC(=O)[C@H](CCC(=O)O)NC(=O)[C@H](CCC(=O)O)NC(=O)[C@H](Cc1ccc(OP(=O)(O)O)cc1)NC(=O)/C=C/c1ccc(O)c(O)c1)C(=O)N[C@@H](CCC(=O)O)C(=O)O [Caffeic acid-pYEEIE] (Caffeoyl-[pY]EEIE-OH)
Out: 0.4

In: # get_value(readout='remaining activity at 10 µM', item= CC(=O)N1CC[C@H]2CC[C@@H](C(=O)N[C@@H](CCC(N)=O)C(=O)NC(c3ccccc3)c3ccccc3)N2C(=O)[C@@H](NC(=O)c2cc3cc(C(F)(F)P(=O)(O)O)ccc3[nH]2)C1 [SI-109] )
Out: 81.4

###

ASSAY_TARGET: PLCG2(SH2dom.N-term.) (Homo sapiens, UniProt P16885)
Construct: SH2dom.N-term. denotes SH2 domain closest to N-terminus of protein; made in house; host or cells: HEK293 (transient transfection, unpurified extract)
Sequence (P16885 532-635 limits assumed): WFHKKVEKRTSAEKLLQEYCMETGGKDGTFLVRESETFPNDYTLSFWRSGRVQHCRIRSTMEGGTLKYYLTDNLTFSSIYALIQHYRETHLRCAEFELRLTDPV
EXPERIMENT_NOTES: biochemical
Type: binding
CONDITION_SET: dose-response; read-out: KD
MEASURED_ENDPOINT: pKd
Give only the number. pKd is defined as minus log10 of concentration in molar units.

In: pKd lookup needed for C/C(=C\C(=O)N[C@H](C(=O)N1CCC[C@H]1C(=O)N(c1ccccc1)c1ccc(I)cc1)C(C)(C)C)c1ccc(OP(=O)(O)O)cc1 [STAT6-IN-1] , thanks.
Out: 6.26

###

ASSAY_TARGET: STAT5B(N642H) (Homo sapiens, UniProt P51692, N642H)
Construct: made in house; host or cells: HEK293 (transient transfection), unpurified extract
Sequence (P51692 1-787 N642H): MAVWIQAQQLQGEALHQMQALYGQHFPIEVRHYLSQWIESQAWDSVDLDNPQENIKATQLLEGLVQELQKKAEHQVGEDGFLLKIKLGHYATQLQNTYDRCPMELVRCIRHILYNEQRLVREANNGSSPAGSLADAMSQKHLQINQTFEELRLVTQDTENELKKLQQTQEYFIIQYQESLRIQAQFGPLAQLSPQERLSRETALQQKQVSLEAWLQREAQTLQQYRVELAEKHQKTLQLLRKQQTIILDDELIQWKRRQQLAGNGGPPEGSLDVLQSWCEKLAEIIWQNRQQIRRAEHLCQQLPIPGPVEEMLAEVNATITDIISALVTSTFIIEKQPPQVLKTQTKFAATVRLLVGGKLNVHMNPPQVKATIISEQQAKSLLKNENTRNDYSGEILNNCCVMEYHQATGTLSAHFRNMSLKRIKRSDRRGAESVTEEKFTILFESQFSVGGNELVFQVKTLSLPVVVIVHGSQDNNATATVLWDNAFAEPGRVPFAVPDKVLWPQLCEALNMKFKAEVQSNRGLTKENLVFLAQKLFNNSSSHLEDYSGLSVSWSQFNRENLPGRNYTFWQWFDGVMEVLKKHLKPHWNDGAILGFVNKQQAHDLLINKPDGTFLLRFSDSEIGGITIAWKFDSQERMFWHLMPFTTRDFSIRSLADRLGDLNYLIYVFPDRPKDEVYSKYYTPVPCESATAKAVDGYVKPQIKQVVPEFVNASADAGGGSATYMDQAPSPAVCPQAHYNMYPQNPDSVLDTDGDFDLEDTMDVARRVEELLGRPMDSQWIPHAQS
EXPERIMENT_NOTES: biochemical
Format: binding
CONDITION_SET: read-out: percent of DMSO vehicle control
Non-standard residues stand in square brackets, D forms with d. Residues, ends and D or L forms follow the SMILES beside them. *: point of attachment. pY = N[C@@H](Cc1ccc(OP(=O)(O)O)cc1)C(=O)O; Caffeoyl = O=C(/C=C/c1ccc(O)c(O)c1)*
percent of DMSO vehicle control at 10 µM values, listed per item
Only the number, expressed in %, is required.

Illustrative cases are given below, each with its answer.
{"columns": ["COMPOUND", "MEASURED_ENDPOINT", "UNIT_ANNOTATION", "OBSERVED_RESULT"],
 "data": [
  ["CC(=O)N[C@@H](Cc1ccc(CP(=O)(O)O)cc1)C(=O)NC1(C(=O)N[C@@H](CC(N)=O)C(=O)NCCCc2c(O)ccc3ccccc23)CCCCC1", "percent of DMSO vehicle control at 10 µM", "%", 107],
  ["NC(=O)CC[C@H](NC(=O)[C@@H]1CC[C@@H]2CCN(C(=O)CCCCCC#Cc3cccc4c3CN(C3CCC(=O)NC3=O)C4=O)C[C@H](NC(=O)c3cc4cc(C(F)(F)P(=O)(O)O)ccc4[nH]3)C(=O)N21)C(=O)NC(c1ccccc1)c1ccccc1 (stereo partly shown)", "percent of DMSO vehicle control at 10 µM", "%", 3.2],
  ["CC[C@H](C)[C@H](NC(=O)[C@H](CCC(=O)O)NC(=O)[C@H](CCC(=O)O)NC(=O)[C@H](Cc1ccc(OP(=O)(O)O)cc1)NC(=O)/C=C/c1ccc(O)c(O)c1)C(=O)N[C@@H](CCC(=O)O)C(=O)O [Caffeic acid-pYEEIE] (Caffeoyl-[pY]EEIE-OH)", "percent of DMSO vehicle control at 10 µM", "%", 9.4]
]}

Turning now to a further record.
In: // lookup percent of DMSO vehicle control at 10 µM for `CC(=O)N1CC[C@H]2CC[C@@H](C(=O)N[C@@H](CCC(N)=O)C(=O)NC(c3ccccc3)c3ccccc3)N2C(=O)[C@@H](NC(=O)c2cc3cc(C(F)(F)P(=O)(O)O)ccc3[nH]2)C1`
Out: 123

###

ASSAY_TARGET: STAT3(Y640F)-nonphosphorylated (Homo sapiens, UniProt P40763, Y640F)
Construct: made in house; host or cells: HEK293 (transient transfection), unpurified extract, dephosphorylated by endogenous phosphatases
Sequence (P40763 whole entry Y640F): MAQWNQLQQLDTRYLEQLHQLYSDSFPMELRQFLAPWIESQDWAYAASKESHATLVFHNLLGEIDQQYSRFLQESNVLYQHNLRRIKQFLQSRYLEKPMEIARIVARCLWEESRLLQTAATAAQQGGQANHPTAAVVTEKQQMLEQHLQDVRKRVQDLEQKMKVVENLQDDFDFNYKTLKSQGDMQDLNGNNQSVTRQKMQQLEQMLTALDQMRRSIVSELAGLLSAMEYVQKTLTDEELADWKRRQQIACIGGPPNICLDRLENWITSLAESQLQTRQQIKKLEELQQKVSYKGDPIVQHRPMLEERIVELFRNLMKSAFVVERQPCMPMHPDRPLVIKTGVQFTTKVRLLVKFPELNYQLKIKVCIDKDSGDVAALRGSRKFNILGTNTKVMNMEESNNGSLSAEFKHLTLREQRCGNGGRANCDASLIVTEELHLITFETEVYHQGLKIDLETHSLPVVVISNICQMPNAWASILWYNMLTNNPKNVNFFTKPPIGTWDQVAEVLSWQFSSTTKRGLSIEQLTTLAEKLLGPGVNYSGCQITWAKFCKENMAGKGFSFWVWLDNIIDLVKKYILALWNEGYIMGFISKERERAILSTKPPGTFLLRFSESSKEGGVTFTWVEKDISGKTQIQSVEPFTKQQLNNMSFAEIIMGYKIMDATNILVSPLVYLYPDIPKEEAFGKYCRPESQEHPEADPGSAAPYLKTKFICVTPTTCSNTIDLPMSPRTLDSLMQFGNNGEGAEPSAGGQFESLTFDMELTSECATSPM
EXPERIMENT_NOTES: biochemical
Type: binding
CONDITION_SET: read-out: percent of DMSO vehicle control
Non-standard residues stand in square brackets, D forms with d. Residues, ends and D or L forms follow the SMILES beside them. *: point of attachment. pY = N[C@@H](Cc1ccc(OP(=O)(O)O)cc1)C(=O)O; Caffeoyl = O=C(/C=C/c1ccc(O)c(O)c1)*
Reported percent of DMSO vehicle control at 10 µM values for a set of compounds
Enter your answer as a number in %; do not include the unit.

# annotated cases, reported percent of DMSO vehicle control at 10 µM shown
{"columns": ["COMPOUND", "OBSERVED_RESULT"],
 "data": [
  ["CC(=O)N[C@@H](Cc1ccc(CP(=O)(O)O)cc1)C(=O)NC1(C(=O)N[C@@H](CC(N)=O)C(=O)NCCCc2c(O)ccc3ccccc23)CCCCC1 [CGP78850]", 118],
  ["CC(=O)N1CC[C@H]2CC[C@@H](C(=O)N[C@@H](CCC(N)=O)C(=O)NC(c3ccccc3)c3ccccc3)N2C(=O)[C@@H](NC(=O)c2cc3cc(C(F)(F)P(=O)(O)O)ccc3[nH]2)C1 [SI-109]", 5.8],
  ["CC[C@H](C)[C@H](NC(=O)[C@H](CCC(=O)O)NC(=O)[C@H](CCC(=O)O)NC(=O)[C@H](Cc1ccc(OP(=O)(O)O)cc1)NC(=O)/C=C/c1ccc(O)c(O)c1)C(=O)N[C@@H](CCC(=O)O)C(=O)O [Caffeic acid-pYEEIE] (Caffeoyl-[pY]EEIE-OH)", 131]
]}

Turning to the following compound.
In: Which percent of DMSO vehicle control at 10 µM reading was recorded for the compound NC(=O)CC[C@H](NC(=O)[C@@H]1CC[C@@H]2CCN(C(=O)CCCCCC#Cc3cccc4c3CN(C3CCC(=O)NC3=O)C4=O)C[C@H](NC(=O)c3cc4cc(C(F)(F)P(=O)(O)O)ccc4[nH]3)C(=O)N21)C(=O)NC(c1ccccc1)c1ccccc1 (stereo partly shown) [SD-36] ?
Out: 0.2
